These entries and their values trace back to ChEMBL document CHEMBL4699478.

molecular target: Cannabinoid receptor 2 (Homo sapiens, UniProt P34972); assay: Displacement of [3H]CP-55940 from CB2 receptor (unknown origin) at 1 uM by competitive binding assay
Sequence (P34972 whole entry): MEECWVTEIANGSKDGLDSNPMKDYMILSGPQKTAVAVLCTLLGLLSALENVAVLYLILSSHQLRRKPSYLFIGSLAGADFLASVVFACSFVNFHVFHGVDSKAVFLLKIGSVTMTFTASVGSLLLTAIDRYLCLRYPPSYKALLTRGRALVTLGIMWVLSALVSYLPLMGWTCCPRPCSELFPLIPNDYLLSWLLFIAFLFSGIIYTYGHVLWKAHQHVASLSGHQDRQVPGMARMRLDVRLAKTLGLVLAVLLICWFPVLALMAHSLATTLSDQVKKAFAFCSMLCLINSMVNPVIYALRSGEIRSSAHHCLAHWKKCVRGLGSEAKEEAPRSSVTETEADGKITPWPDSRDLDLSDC
OBSERVABLE: inhibition (%)
Give a bare numeral; the unit % is implied.

Solved entries (count: 4):
O=C1/C(=C/c2cn(Cc3cccc(C(F)(F)F)c3)c3ncccc23)N2CCC1CC2
56.7
OC1/C(=C/c2cn(Cc3ccc(Cl)cc3)c3ncccc23)N2CCC1CC2 (racemic)
58.5
O=C1/C(=C/c2cn(Cc3ccc(F)cc3)c3ncccc23)N2CCC1CC2
100
O=C1/C(=C/c2cn(CCN3CCOCC3)c3ncccc23)N2CCC1CC2
7.92

Enquiry: Notebook: pull reported inhibition for Cannabinoid receptor 2 (Homo sapiens, UniProt P34972), entry OC1/C(=C/c2cn(Cc3ccccc3)c3ncccc23)N2CCC1CC2 (racemic)
Return: 0

Enquiry: Notebook: pull reported inhibition for Cannabinoid receptor 2 (Homo sapiens, UniProt P34972), entry COc1ccc(Cn2cc(/C=C3/C(=O)C4CCN3CC4)c3cccnc32)cc1
Return: 27.5

Enquiry: Notebook: pull reported inhibition for Cannabinoid receptor 2 (Homo sapiens, UniProt P34972), entry O=C1/C(=C/c2cn(CCN3CCCC3)c3ncccc23)N2CCC1CC2
Return: 56.6

Enquiry: Notebook: pull reported inhibition for Cannabinoid receptor 2 (Homo sapiens, UniProt P34972), entry N#Cc1ccc(Cn2cc(/C=C3/C(=O)C4CCN3CC4)c3cccnc32)cc1
Return: 64.1

----------
biological target: Cannabinoid receptor 2 (Homo sapiens, UniProt P34972)
The entries below are paired with their reported Ki.
Provide the measurement as a number trailed by its unit.

Solved entries (count: 3):
O=C1/C(=C/c2cn(Cc3ccc(Cl)cc3)c3ncccc23)N2CCC1CC2
115 nM
O=C1/C(=C/c2cn(Cc3ccccc3)c3ncccc23)N2CCC1CC2
110 nM
O=C1/C(=C/c2cn(Cc3ccc(F)cc3)c3ncccc23)N2CCC1CC2
23.7 nM

Please examine the following record next.
Enquiry: GET /values?readout=Ki&item= O=C1/C(=C/c2cn(Cc3ccc(Br)cc3)c3ncccc23)N2CCC1CC2
Return: 625 nM

----------
molecular target: Cannabinoid receptor 1 (Homo sapiens); test: Displacement of [3H]CP-55940 from CB1 receptor (unknown origin) at 1 uM by competitive binding assay
Sequence (P21554 whole entry): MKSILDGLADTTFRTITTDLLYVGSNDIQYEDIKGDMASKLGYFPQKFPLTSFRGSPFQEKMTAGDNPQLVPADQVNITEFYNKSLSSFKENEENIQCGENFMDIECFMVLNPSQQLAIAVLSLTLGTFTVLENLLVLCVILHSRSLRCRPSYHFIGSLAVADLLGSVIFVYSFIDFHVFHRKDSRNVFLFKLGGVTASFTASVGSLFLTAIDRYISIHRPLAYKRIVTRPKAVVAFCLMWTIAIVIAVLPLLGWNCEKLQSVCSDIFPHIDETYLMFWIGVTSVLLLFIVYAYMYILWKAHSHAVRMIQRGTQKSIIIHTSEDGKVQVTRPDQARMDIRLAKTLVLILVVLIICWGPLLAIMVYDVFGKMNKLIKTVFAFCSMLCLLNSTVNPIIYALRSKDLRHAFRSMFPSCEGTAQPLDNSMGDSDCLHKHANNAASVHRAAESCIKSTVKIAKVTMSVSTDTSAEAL
Class Fulfilled: inhibition at least 20%. Class Not fulfilled: inhibition below 20%.

OC1/C(=C/c2cn(Cc3ccccc3)c3ncccc23)N2CCC1CC2 (racemic)
Not fulfilled

Enquiry: hey, is inhibition for this one >= 20%? O=C1/C(=C/c2cn(Cc3ccc(F)cc3)c3ncccc23)N2CCC1CC2
Return: Fulfilled

Enquiry: hey, is inhibition for this one >= 20%? N#Cc1ccc(Cn2cc(/C=C3/C(=O)C4CCN3CC4)c3cccnc32)cc1
Return: Fulfilled

Enquiry: hey, is inhibition for this one >= 20%? O=C1/C(=C/c2cn(Cc3cccc(C(F)(F)F)c3)c3ncccc23)N2CCC1CC2
Return: Fulfilled

Enquiry: hey, is inhibition for this one >= 20%? O=C1/C(=C/c2cn(CCN3CCCC3)c3ncccc23)N2CCC1CC2
Return: Fulfilled

Enquiry: hey, is inhibition for this one >= 20%? OC1/C(=C/c2cn(Cc3ccc(Cl)cc3)c3ncccc23)N2CCC1CC2 (racemic)
Return: Fulfilled

Enquiry: hey, is inhibition for this one >= 20%? COc1ccc(Cn2cc(/C=C3/C(=O)C4CCN3CC4)c3cccnc32)cc1
Return: Fulfilled

Enquiry: hey, is inhibition for this one >= 20%? O=C1/C(=C/c2cn(CCN3CCOCC3)c3ncccc23)N2CCC1CC2
Return: Not fulfilled

Enquiry: hey, is inhibition for this one >= 20%? O=C1/C(=C/c2cn(Cc3ccccc3)c3ncccc23)N2CCC1CC2
Return: Not fulfilled
